# testMethodNotes: qHTS of pediatric cancer cell lines to identify multiple opportunities for drug repurposing: Primary screen for U-2 OS cells (AID 1347096); also: nearly all actives have a fitted effect of over 50% in size
# conditionDescription: U-2 OS viability, CellTiter-Glo luminescence, 48 h; series mostly up to 46 µM
# Method: Drug repurposing or repositioning has been offered as a strategy for drug development in oncology programs. […] [1] Shen, M et al. Quantitative high-throughput phenotypic screening of pediatric cancer cell lines identifies multiple opportunities for drug repurposing. […] Cells were assayed in growth media at a density of 500-1,000 cells/well. […] After a 15 min incubation at room temperature, samples were analyzed for luminescence intensity using a ViewLux High-throughput CCD imager equipped with clear filters.
Records with an inconclusive call do not appear. Active and inactive are the calls of the source. Calls follow the shape of the dose curve; as a rule, active = well fitted cell-killing curve with a large enough effect; inconclusive = small, poorly fitted or top-dose-only effect; inactive = flat fitted curve, though single readings scatter.
Result category, one only: Yes (active), No (inactive)

COc1cccc2nc(-c3cccs3)nc(NN3C(=O)C=C(C)C3=O)c12 | Yes
CCCCCN(CCC12CC3CC(CC(C3)C1)C2)C(=O)NCCCc1ccncc1 | No
NC(=O)c1c(OCc2c(F)cc(Br)cc2F)nsc1NC(=O)NCCCCN1CCCC1 | No
COC(=O)[C@]12CCC(C)(C)C[C@@H]1[C@@H]1C(=O)C=C3[C@@]4(C)C=C(C#N)C(=O)C(C)(C)[C@@H]4CC[C@@]3(C)[C@]1(C)CC2 | Yes
Nc1ccn([C@@H]2O[C@H](CO)[C@H](O)C2(F)F)c(=O)n1 | No

Please state the recorded outcome for this compound: `OCc1ccc(-c2ccc(-c3ccc(CO)s3)o2)s1`
No

Test call, this compound: `COc1cc2ncn(-c3cc(OCc4ccccc4C(F)(F)F)c(C(N)=O)s3)c2cc1OC`
Yes

Hey, what did the test say about `CC(C)Nc1cc(C(F)(F)F)cc2nc(NC(=O)c3cccnc3)nn12` ?
No

Hi, do you know how `COc1c(N2C[C@@H]3CCCN[C@H]3C2)c(F)cc2c(=O)c(C(=O)O)cn(C3CC3)c12` came out in this test?
No

###

# testMethodNotes: qHTS of pediatric cancer cell lines to identify multiple opportunities for drug repurposing: Confirmatory screen for U-2 OS cells (AID 1347122); also: nearly all actives have a fitted effect of over 65% in size
# conditionDescription: U-2 OS osteosarcoma cell viability; series mostly up to 45.9 µM
Results filed as inconclusive are left out. Activity calls are given as the source filed them. Calls follow the shape of the dose curve; as a rule, active = well fitted cell-killing curve with a large enough effect; inconclusive = small, poorly fitted or top-dose-only effect; inactive = no such curve, though single readings can be large or run the other way.
Thanks in advance; please answer with one of these: active, inactive

Look over these answered cases.
COc1cccc2nc(-c3cccs3)nc(NN3C(=O)C=C(C)C3=O)c12 | active
Cc1nc2cnc3ccc(C#Cc4cccnc4)cc3c2n1-c1ccc(C(C)(C)C#N)cc1 | active
CN(C)CCCN=c1c2ccccc2n(C)c2[nH]c(=O)n(C)c(=O)c12 | inactive
Cc1ccc(C(N)=O)cc1Nc1nccc(-c2cn(C(C)C)c3cnccc23)n1 | active
COc1cc2c(NC3CCN(C(C)C)CC3)nc(C3CCCCC3)nc2cc1OCCCN1CCCC1 | inactive

Please indicate how the test categorized `Cc1ccc(C(=O)Nc2ccc(CN3CCN(C)CC3)c(C(F)(F)F)c2)cc1C#Cc1cnc2cccnn12` .
active

Name the outcome recorded for `Nc1ccccc1NC(=O)c1ccc(CNC(=O)OCc2cccnc2)cc1` in the assay.
active

###

# Test system: NIH3T3
# testMethodNotes: Cytotoxic Profiling of Annotated Libraries Using Quantitative High-Throughput Screening (AID 1296008); also: nearly all actives have a fitted effect of over 60% in size
# conditionDescription: Five cell lines viability, CellTiter-Glo ATP luminescence, 48-72 h
Records with an inconclusive call do not appear. Active and inactive are the calls of the source. Calls come from the whole dose curve; as a rule, active = well fitted inhibition curve with a large enough effect; inconclusive = small, poorly fitted or top-dose-only effect; inactive = flat fitted curve, though single readings scatter.
Would you mind answering with one of these outcomes? Yes (active), No (inactive)

Record excerpt, results attached:
CC(C)=CCCC(C)=CCCC(C)=CCSc1ccccc1C(=O)O | Yes
Nc1nc(NCCNc2ncc(-n3ccnc3)c(-c3ccc(Cl)cc3Cl)n2)ccc1[N+](=O)[O-] | No
CC1(O)CC(c2nc(-c3ccc4ccc(-c5ccccc5)nc4c3)c3c(N)nccn23)C1 (centres undefined) | Yes

// param item: `O=C(O)c1ccc2c(c1)nc(Nc1cccc(Cl)c1)c1ccncc12` ; yields the recorded call
No

Would you mind telling me which call this test gave `CCn1nnc2c(N3CCOCC3)nc(-c3ccc(NC(=O)Nc4ccc(C(=O)N5CCN(C)CC5)cc4)cc3)nc21` ?
Yes

Hi, sorry to bother you, what did the test record for `Clc1ccc2ncc(-c3cccc(NC4CNC4)n3)n2c1` ?
No

Could you kindly confirm the outcome this assay logged for `COc1cc2c(Nc3ccc(NC(=O)c4ccccc4)cc3)ncnc2cc1OCCCN1CCOCC1` ?
Yes

Which outcome was entered for the compound `CNC(=O)c1ccccc1Nc1nc(Nc2ccc(N3CCOCC3)cc2OC)ncc1Cl` in this test?
Yes

What did this assay record as the result for `CCN(CC)CCNC(=O)c1ccc2nc(-c3ccccc3)c(-c3ccc(CN4CCC(n5c(=O)[nH]c6ccccc65)CC4)cc3)nc2c1` ?
Yes
